This listing pairs compounds with measured Plate 2 (% conversion).
Target: His6-AspH315–758 (human aspartate/asparagine-β-hydroxylase, AspH) (Homo sapiens, UniProt Q12797)
Construct: N-Terminally His6-tagged human AspH315–758 (His6-AspH315–758) was produced in E. coli BL21 (DE3) cells; made in house; host or cells: E. coli BL21 (DE3), pET-28a(+) vector
Sequence (Q12797 315-758): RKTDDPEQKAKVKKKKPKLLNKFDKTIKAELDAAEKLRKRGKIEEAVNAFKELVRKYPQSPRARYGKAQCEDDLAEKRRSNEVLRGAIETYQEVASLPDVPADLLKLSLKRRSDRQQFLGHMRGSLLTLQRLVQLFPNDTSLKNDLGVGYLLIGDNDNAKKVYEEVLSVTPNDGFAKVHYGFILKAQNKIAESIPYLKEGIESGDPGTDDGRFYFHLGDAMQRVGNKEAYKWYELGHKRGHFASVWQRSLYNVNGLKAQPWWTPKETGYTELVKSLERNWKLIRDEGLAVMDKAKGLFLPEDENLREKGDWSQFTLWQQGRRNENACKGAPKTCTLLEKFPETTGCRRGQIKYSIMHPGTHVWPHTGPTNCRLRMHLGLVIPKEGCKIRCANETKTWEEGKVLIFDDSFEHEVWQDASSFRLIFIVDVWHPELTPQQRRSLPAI
Experiment: SPE-MS AspH inhibition assay (LOPAC screen at fixed 20 μM and IC50 dose-response), hydroxylation of cyclic peptide hFX-CP101–119
Assay type: biochemical
Conditions: LOPAC compound at 20uM, plate 2; conversion of substrate peptide
Where a name gives a salt, the structure may show the parent alone.

Cl.Cl.Fc1ccc(C(OCCN2CCN(CCCc3ccccc3)CC2)c2ccc(F)cc2)cc1 [GBR-12909 dihydrochloride]    51.05%

Record c1ccc(C2CC2)c(OCC2=NCCN2)c1 [Cirazoline hydrochloride] , field Plate 2 (% conversion): 38.17%

Record `Nc1nc(O)c2ncn(COC(CO)CO)c2n1` , field Plate 2 (% conversion): 35.57%

Record Nc1nc(Cl)nc2c1ncn2[C@@H]1O[C@H](COP(=O)(O)OP(=O)(O)OP(=O)(O)O)C(O)C1O (stereo in doubt) , field Plate 2 (% conversion): 11.93%

Record Cl.O[Si](CCCN1CCCCC1)(c1ccc(F)cc1)C1CCCCC1 (centres unmarked) , field Plate 2 (% conversion): 40.91%
